assay: Cmax in CD-1 mouse at 50 mg/kg, po by LC-MS/MS analysis; type: ADME, organism-based; settings: in vivo
Endpoint: Cmax

COc1cc2c(O[C@@H]3O[C@H](C)[C@@H](O)[C@H](O)[C@H]3O)c3c(c(-c4ccc5c(c4)OCO5)c2cc1OC)C(=O)OC3 = 101 nM
COc1cc2c(OC3CCOC3)c3c(c(-c4ccc5c(c4)OCO5)c2cc1OC)C(=O)OC3 (centres undefined) = 1250 nM
COc1cc2c(OCCCC#N)c3c(c(-c4ccc5c(c4)OCO5)c2cc1OC)C(=O)OC3 = 3560 nM
COc1cc2c(OC3CCNCC3)c3c(c(-c4ccc5c(c4)OCO5)c2cc1OC)C(=O)OC3 = 151 nM

---

system: HEK293; test: Cytotoxicity against HEK293 cells incubated for 72 hrs by MTT assay; type: toxicity, cell-based; details: human, hek293, 72 h
Some molecules, each annotated with its measured CC50.
Endpoint: CC50

COc1cc2c(OCCCN3CCN(S(C)(=O)=O)CC3)c3c(c(-c4ccc5c(c4)OCO5)c2cc1OC)C(=O)OC3 = > 80 µM
COc1cc2c(OCCCN3CCOCC3)c3c(c(-c4ccc5c(c4)OCO5)c2cc1OC)C(=O)OC3 = > 80 µM
COc1cc2c(O)c3c(c(-c4ccc5c(c4)OCO5)c2cc1OC)C(=O)OC3 = > 80 µM
COc1cc2c(OCC(O)CN3CCN(C)CC3)c3c(c(-c4ccc5c(c4)OCO5)c2cc1OC)C(=O)OC3 (configuration not stated) = > 80 µM
COc1cc2c(OCCCN3CCN(C=O)CC3)c3c(c(-c4ccc5c(c4)OCO5)c2cc1OC)C(=O)OC3 = > 80 µM
COc1cc2c(OCC#N)c3c(c(-c4ccc5c(c4)OCO5)c2cc1OC)C(=O)OC3 = > 80 µM
COc1cc2c(OCCCN3CC4CCC3CO4)c3c(c(-c4ccc5c(c4)OCO5)c2cc1OC)C(=O)OC3 (configuration not stated) = 80 µM
CO/C1=C\C(C)=C\[C@@H](C)[C@@H](O)[C@@H](C)C/C(C)=C/C=C/[C@H](OC)[C@@H]([C@@H](C)[C@@H](O)[C@H](C)[C@@]2(O)C[C@@H](O)[C@H](C)[C@@H](C(C)C)O2)OC1=O = 37 µM
COc1cc2c(OCCCN3[C@@H]4CC[C@H]3COC4)c3c(c(-c4ccc5c(c4)OCO5)c2cc1OC)C(=O)OC3 = > 80 µM
COc1cc2c(OCCCN3CC4CCC(C3)O4)c3c(c(-c4ccc5c(c4)OCO5)c2cc1OC)C(=O)OC3 = > 80 µM
COc1cc2c(OCCCN3CCN(C)CC3)c3c(c(-c4ccc5c(c4)OCO5)c2cc1OC)C(=O)OC3 = 12 µM
COc1cc2c(OCC(O)CN3CC4CCC(C3)N4C)c3c(c(-c4ccc5c(c4)OCO5)c2cc1OC)C(=O)OC3 (configuration not stated) = > 80 µM
COc1cc2c(OCCCN3CCN(C)C(=O)C3)c3c(c(-c4ccc5c(c4)OCO5)c2cc1OC)C(=O)OC3 = > 80 µM
COc1cc2c(OCCCN3CCNC(=O)C3)c3c(c(-c4ccc5c(c4)OCO5)c2cc1OC)C(=O)OC3 = > 80 µM
COc1cc2c(OCCN3CCOCC3)c3c(c(-c4ccc5c(c4)OCO5)c2cc1OC)C(=O)OC3 = > 80 µM
COc1cc2c(OCCCN3CCN(C(C)=O)CC3)c3c(c(-c4ccc5c(c4)OCO5)c2cc1OC)C(=O)OC3 = > 80 µM
COc1cc2c(OCCN3CCN(C)CC3)c3c(c(-c4ccc5c(c4)OCO5)c2cc1OC)C(=O)OC3 = > 80 µM
COc1cc2c(OC3COC3)c3c(c(-c4ccc5c(c4)OCO5)c2cc1OC)C(=O)OC3 = 72 µM
COc1cc2c(OCCCN3CC4CCC(C3)N4C)c3c(c(-c4ccc5c(c4)OCO5)c2cc1OC)C(=O)OC3 = > 80 µM
COc1cc2c(OC3CCOC3)c3c(c(-c4ccc5c(c4)OCO5)c2cc1OC)C(=O)OC3 (configuration not stated) = > 80 µM
COc1cc2c(OCCCN3CC4CC3CN4C)c3c(c(-c4ccc5c(c4)OCO5)c2cc1OC)C(=O)OC3 (configuration not stated) = > 80 µM
COc1cc2c(O[C@@H]3O[C@H](C)[C@@H](O)[C@H](O)[C@H]3O)c3c(c(-c4ccc5c(c4)OCO5)c2cc1OC)C(=O)OC3 = > 80 µM

---

// values below are reported inhibition (INH)
molecular target: Voltage-gated inwardly rectifying potassium channel KCNH2 (Homo sapiens, UniProt Q12809); assay: Inhibition of hERG at 10 uM relative to control; assay type: toxicity
Sequence (Q12809 whole entry): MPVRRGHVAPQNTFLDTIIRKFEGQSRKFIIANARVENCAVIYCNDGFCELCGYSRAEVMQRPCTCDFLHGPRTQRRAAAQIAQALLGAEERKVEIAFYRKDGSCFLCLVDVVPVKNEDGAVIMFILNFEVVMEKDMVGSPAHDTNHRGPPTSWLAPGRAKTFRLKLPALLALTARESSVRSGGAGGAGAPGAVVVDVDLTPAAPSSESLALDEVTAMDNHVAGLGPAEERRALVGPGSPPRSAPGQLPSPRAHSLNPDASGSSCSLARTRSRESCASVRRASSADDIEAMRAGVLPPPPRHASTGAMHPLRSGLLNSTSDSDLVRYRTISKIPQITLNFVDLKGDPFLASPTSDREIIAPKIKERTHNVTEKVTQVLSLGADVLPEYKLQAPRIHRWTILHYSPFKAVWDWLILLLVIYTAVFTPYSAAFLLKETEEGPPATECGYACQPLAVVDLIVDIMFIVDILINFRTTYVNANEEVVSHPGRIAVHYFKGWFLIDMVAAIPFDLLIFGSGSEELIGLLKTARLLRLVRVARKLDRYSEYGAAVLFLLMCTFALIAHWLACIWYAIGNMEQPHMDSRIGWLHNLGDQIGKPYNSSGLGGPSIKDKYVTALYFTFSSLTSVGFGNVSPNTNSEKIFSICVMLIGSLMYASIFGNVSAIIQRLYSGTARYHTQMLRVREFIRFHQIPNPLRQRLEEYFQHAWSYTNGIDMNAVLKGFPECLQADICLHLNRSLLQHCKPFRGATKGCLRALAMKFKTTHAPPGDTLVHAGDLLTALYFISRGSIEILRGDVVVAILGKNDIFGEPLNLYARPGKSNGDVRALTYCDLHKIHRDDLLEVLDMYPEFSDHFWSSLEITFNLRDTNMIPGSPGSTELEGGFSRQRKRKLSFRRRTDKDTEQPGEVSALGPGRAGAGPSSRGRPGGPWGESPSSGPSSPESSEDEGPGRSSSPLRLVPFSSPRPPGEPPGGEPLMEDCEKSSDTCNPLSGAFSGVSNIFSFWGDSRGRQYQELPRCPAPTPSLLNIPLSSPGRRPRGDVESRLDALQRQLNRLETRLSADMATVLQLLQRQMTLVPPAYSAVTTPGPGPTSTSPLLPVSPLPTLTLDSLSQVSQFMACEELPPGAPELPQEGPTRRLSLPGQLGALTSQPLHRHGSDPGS
Endpoint: inhibition (INH)

COC(=O)N1CCN(CCCOc2c3c(c(-c4ccc5c(c4)OCO5)c4cc(OC)c(OC)cc24)C(=O)OC3)CC1 = 30%
COc1cc2c(OC3CCNC3)c3c(c(-c4ccc5c(c4)OCO5)c2cc1OC)C(=O)OC3 (stereo unspecified) = 97%
COCCN1CCN(CC(O)COc2c3c(c(-c4ccc5c(c4)OCO5)c4cc(OC)c(OC)cc24)C(=O)OC3)CC1 (stereo unspecified) = 51%
COc1cc2c(OCCCC#N)c3c(c(-c4ccc5c(c4)OCO5)c2cc1OC)C(=O)OC3 = 24%
COc1cc2c(OCCCN3CCN(C)C(=O)C3)c3c(c(-c4ccc5c(c4)OCO5)c2cc1OC)C(=O)OC3 = 9%
COc1cc2c(OCC(O)CN3CCOCC3)c3c(c(-c4ccc5c(c4)OCO5)c2cc1OC)C(=O)OC3 (stereo unspecified) = 16%
COc1cc2c(OCCN3CCN(C)CC3)c3c(c(-c4ccc5c(c4)OCO5)c2cc1OC)C(=O)OC3 = 79%
COc1cc2c(OCC#N)c3c(c(-c4ccc5c(c4)OCO5)c2cc1OC)C(=O)OC3 = 6%
COc1cc2c(OCCCN3CCN(S(C)(=O)=O)CC3)c3c(c(-c4ccc5c(c4)OCO5)c2cc1OC)C(=O)OC3 = 16%
COc1cc2c(OC3CCOC3)c3c(c(-c4ccc5c(c4)OCO5)c2cc1OC)C(=O)OC3 (stereo unspecified) = 30%
COc1cc2c(OCCCN3CCN(C)CC3)c3c(c(-c4ccc5c(c4)OCO5)c2cc1OC)C(=O)OC3 = 75%
COc1cc2c(OCCCN3CC4CCC3CN4C)c3c(c(-c4ccc5c(c4)OCO5)c2cc1OC)C(=O)OC3 (stereo unspecified) = 90%
COc1cc2c(O[C@@H]3O[C@H](C)[C@@H](O)[C@H](O)[C@H]3O)c3c(c(-c4ccc5c(c4)OCO5)c2cc1OC)C(=O)OC3 = < 5%
COc1cc2c(OCCCN3CC4CC3CN4C)c3c(c(-c4ccc5c(c4)OCO5)c2cc1OC)C(=O)OC3 (stereo unspecified) = 72%
COc1cc2c(OC3COC3)c3c(c(-c4ccc5c(c4)OCO5)c2cc1OC)C(=O)OC3 = 15%
COc1cc2c(OC3CCNCC3)c3c(c(-c4ccc5c(c4)OCO5)c2cc1OC)C(=O)OC3 = 80%

---

test system: Ebolavirus; test: Antiviral activity against recombinant Ebola virus Mayinga expressing GFP infected in human primary macrophages assessed as reduction in infectivity pretreated for 1 hr followed by viral infection measured after 24 to 48 hrs by imaging analysis; format: functional, organism-based; settings: Orthoebolavirus, Primary macrophage
pEC50: −log10 of the molar value.
Endpoint: pEC50

COc1cc2c(O[C@@H]3O[C@H](C)[C@@H](O)[C@H](O)[C@H]3O)c3c(c(-c4ccc5c(c4)OCO5)c2cc1OC)C(=O)OC3 [PATENTIFLORIN A] = 7.07
COc1cc2c(OCCCN3CCS(=O)(=O)CC3)c3c(c(-c4ccc5c(c4)OCO5)c2cc1OC)C(=O)OC3 = 6.74
COc1cc2c(OCCCN3CC4CCC3CO4)c3c(c(-c4ccc5c(c4)OCO5)c2cc1OC)C(=O)OC3 (stereo unspecified) = 7.72
COc1cc2c(OCCCN3[C@@H]4CC[C@H]3CN(C)C4)c3c(c(-c4ccc5c(c4)OCO5)c2cc1OC)C(=O)OC3 = 7.60
COc1cc2c(OCCCN3CC4CCC(C3)N4C)c3c(c(-c4ccc5c(c4)OCO5)c2cc1OC)C(=O)OC3 = 8.00
COc1cc2c(OCCCN3CCN(C)C(=O)C3)c3c(c(-c4ccc5c(c4)OCO5)c2cc1OC)C(=O)OC3 = 6.78

---

assay: AUC (0.25 to 24 hrs) in CD-1 mouse at 50 mg/kg, po by LC-MS/MS analysis; assay type: ADME, organism-based; settings: in vivo
# AUC(0-t) per record follows
Endpoint: AUC(0-t) (µM·h)

COc1cc2c(OC3CCOC3)c3c(c(-c4ccc5c(c4)OCO5)c2cc1OC)C(=O)OC3 (stereo not drawn) = 12
COc1cc2c(OCCCC#N)c3c(c(-c4ccc5c(c4)OCO5)c2cc1OC)C(=O)OC3 = 6.86
COc1cc2c(OC3CCNCC3)c3c(c(-c4ccc5c(c4)OCO5)c2cc1OC)C(=O)OC3 = 0.636
